# MEASUREMENT_PROTOCOL: protein stability index of a GFP-peptide fusion (yeast GPS) (PSI 1-4); higher = more stable; sorted into four equal gates, so the index is relative within each strain
# TEST_CONDITIONS: san1∆
Please go through the items and note down their protein stability index.
One number for each entry.

Consider the following illustrative entries.
SAAGNKAIPTFSFGKPF [YIL149C/MLP2]	2.96
DYKGAKLNVVGWFHSHP [RRI1]	2.38
KRPTPPSFTFGGSTTNN [YOR098C/NUP1]	2.78
DFKTDVDEPMTSAVELG [YJL039C/NUP192]	2.54
EVVEAVTVVDTPPVVVV [RPL3]	1.48
HPFGHALVAGIERYPSK [RPL27B]	2.24
DPSQNRLTGSLLAHKVA [RPC37]	1.69
ELIIDPLFKKALVDFDE [BRN1]	3.01

Could you tell me protein stability index for each of these sequences? They are listed below.
1. TKWGLINYQVDSKLLPK [SWI3]
2. QVEYALEAIKQGSVTVG [PRE5]
3. HKDSFYDRATLTQLLSM [RPO31]
4. PQRLQRKRHQRALKVRN [RPS6A]
5. MREITETIAEAKKKVLD [RPO21]

A:
1. 1.92
2. 3.14
3. 2.09
4. 2.64
5. 3.42

Could you tell me protein stability index for each of these sequences? They are listed below.
1. MPPKFDPNEVKYLYLRA [RPL12A]
2. QPTPRSASNTAKSTPNT [GAL11]
3. MTNLTYFLHLSVFNAEL [YCS4]
4. QRVFKPVDITMMENYQN [PRP8]
5. AKTFGASVRIFLYPSNI [RPL33A]
6. SQSSAAAGASVDDKRRN [RPN6]
7. NKDSIEECGRTIHRSFT [CSN12]

A:
1: 2.98; 2: 2.75; 3: 1.87; 4: 2.71; 5: 2.5; 6: 3.02; 7: 3.28

Could you tell me protein stability index for each of these sequences? They are listed below.
1. PEFAGYSKAAEPHAVSL [ASC1]
2. PIDNNIIFASTKLGFTF [SNU114]
3. QNRRLAFEELEGSWDRG [PRP8]
4. QQKQQQQQQQHQQQQQQ [SNF5]
5. ITHRDLHYDKDYNLRIY [SSN8]
6. DNFDYFNQRDGEHEKSN [MED1]
7. LIQQVPPGLDALVKPET [CDC53]

A:
2.17
2.38
3.24
2.81
2.46
3.19
2.83

Could you tell me protein stability index for each of these sequences? They are listed below.
1. PSILEDSLENNEGVPSP [FAS1]
2. GGQIAHILFQNNPDMMI [ROX3]
3. IVMEDHGVLQGTSQNYG [MED1]

A:
3.22
2.59
3.13
